Experiment: Ocular pharmacokinetics and biodistribution in adult mice (HPLC tissue levels)
Settings: read-out: Retinal Cmax; adult mice, single 1 μL intravitreal injection of OXT-328 1%; mean ± SEM
quantity name: Cmax (µM)
# unit: µM | format: bare number

> print(dat)
                                   molecule  quantity.name  uom  val
1  CCOP(=O)(OCC)OCCCCOC(=O)CC1=C(C)/C(=C/c2ccc([S+](C)[O-])cc2)c2ccc(F)cc21 (centres unmarked)           Cmax   µM  516

Now turn to the next molecule.
Ask: # input molecule: CC1=C(CC(=O)O)c2cc(F)ccc2/C1=C\c1ccc(S(C)(=O)=O)cc1 ; wanted: its Cmax
Result: 14.5

* * *

Assay: in vivo
Conditions: mouse, topical or ocular
quantity name: Tmax (min)
The reply should contain only the number, in min.

Ask: # lookup: Tmax of CCOP(=O)(NCCN1CCN(C(=O)CC2=C(C)/C(=C/c3ccc([S+](C)[O-])cc3)c3ccc(F)cc32)CC1)OCC (stereo not shown)
Result: 30

* * *

Experiment: in vivo
Details: mouse, topical or ocular
quantity name: half-life (min)
Write the answer as a number in min, unit excluded.

Ask: Entry CCOP(=O)(NCCN1CCN(C(=O)CC2=C(C)/C(=C/c3ccc([S+](C)[O-])cc3)c3ccc(F)cc32)CC1)OCC (stereo not shown) : reported half-life = ?
Result: 282

* * *

Test: in vivo
Conditions: mouse, Level in the cornea, adult mice, 1 h after OXT-328 3.5% eye drops (3 drops per eye), mean ± SEM
quantity name: concentration at 1 h (nM)
Hi! Could you send only the number? It should be in nM, unit omitted.

Ask: What concentration at 1 h value was documented for this compound, CCOP(=O)(OCC)OCCCCOC(=O)CC1=C(C)/C(=C/c2ccc([S+](C)[O-])cc2)c2ccc(F)cc21 (stereo not shown) [OXT-328, phospho-sulindac] ?
Result: 0

Origin of the recorded values: paper PMC10178932
